target: human TLR9 (Homo sapiens); test: TLR9 inhibition reporter assay (HEK-Blue cells, SEAP reporter, ODN2006 stimulation); details: HEK-Blue cells overexpressing human TLR9, SEAP reporter, ODN2006 5 nM
Sequence (Q9NR96 26-1032): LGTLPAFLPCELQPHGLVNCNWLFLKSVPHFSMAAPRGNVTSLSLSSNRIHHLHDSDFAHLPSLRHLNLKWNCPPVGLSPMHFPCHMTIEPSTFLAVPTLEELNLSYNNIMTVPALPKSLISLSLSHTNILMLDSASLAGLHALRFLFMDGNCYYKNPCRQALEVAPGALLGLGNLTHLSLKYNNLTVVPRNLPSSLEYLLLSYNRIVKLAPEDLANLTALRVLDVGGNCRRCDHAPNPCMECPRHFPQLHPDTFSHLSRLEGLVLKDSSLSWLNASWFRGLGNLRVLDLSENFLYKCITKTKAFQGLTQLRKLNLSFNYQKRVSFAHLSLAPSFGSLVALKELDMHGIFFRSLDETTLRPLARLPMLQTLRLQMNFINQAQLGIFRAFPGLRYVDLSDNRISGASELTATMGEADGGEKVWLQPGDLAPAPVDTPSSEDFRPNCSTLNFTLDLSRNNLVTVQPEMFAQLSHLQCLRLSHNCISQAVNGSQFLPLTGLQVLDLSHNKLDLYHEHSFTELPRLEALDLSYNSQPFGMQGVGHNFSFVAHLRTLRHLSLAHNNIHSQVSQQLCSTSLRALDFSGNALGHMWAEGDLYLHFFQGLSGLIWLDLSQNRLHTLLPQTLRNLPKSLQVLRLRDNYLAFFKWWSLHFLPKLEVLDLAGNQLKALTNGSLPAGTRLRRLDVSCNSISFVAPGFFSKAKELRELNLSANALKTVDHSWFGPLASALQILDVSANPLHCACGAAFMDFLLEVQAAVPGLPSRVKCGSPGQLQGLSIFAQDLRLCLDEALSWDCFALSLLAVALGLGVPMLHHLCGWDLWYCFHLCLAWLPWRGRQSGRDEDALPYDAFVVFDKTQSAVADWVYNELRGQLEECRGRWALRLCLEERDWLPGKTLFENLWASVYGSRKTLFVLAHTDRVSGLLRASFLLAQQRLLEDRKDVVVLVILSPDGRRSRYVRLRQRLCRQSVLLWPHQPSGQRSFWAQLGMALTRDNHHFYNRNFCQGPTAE
Please respond with reported IC50 for every item in the list.

Before answering, review these 3 worked examples.
Cc1cc(-c2[nH]c3ccc(C4CCN(C(=O)CN5CCCC5)CC4)cc3c2C(C)C)cn2nnnc12
1000 to 50000 nM
CCc1c(-c2ccnc3[nH]ncc23)[nH]c2ccc(C3CCN(Cc4nccs4)CC3)cc12
1000 to 50000 nM
Cc1nc2cc(-c3[nH]c4ccc(C5CCN(C6COC6)CC5)cc4c3C(C)C)cc(C)c2o1
1000 to 50000 nM

Field: next compound
## Task State its IC50 for this compound: `COc1c(C)c(-c2[nH]c3ccc(C4CCNCC4)cc3c2C(C)C)nn2ncnc12`
## Result 100 to 1000 nM

----------
Target: human TLR7 (Homo sapiens, UniProt Q9NYK1)
Sequence (Q9NYK1 27-1049): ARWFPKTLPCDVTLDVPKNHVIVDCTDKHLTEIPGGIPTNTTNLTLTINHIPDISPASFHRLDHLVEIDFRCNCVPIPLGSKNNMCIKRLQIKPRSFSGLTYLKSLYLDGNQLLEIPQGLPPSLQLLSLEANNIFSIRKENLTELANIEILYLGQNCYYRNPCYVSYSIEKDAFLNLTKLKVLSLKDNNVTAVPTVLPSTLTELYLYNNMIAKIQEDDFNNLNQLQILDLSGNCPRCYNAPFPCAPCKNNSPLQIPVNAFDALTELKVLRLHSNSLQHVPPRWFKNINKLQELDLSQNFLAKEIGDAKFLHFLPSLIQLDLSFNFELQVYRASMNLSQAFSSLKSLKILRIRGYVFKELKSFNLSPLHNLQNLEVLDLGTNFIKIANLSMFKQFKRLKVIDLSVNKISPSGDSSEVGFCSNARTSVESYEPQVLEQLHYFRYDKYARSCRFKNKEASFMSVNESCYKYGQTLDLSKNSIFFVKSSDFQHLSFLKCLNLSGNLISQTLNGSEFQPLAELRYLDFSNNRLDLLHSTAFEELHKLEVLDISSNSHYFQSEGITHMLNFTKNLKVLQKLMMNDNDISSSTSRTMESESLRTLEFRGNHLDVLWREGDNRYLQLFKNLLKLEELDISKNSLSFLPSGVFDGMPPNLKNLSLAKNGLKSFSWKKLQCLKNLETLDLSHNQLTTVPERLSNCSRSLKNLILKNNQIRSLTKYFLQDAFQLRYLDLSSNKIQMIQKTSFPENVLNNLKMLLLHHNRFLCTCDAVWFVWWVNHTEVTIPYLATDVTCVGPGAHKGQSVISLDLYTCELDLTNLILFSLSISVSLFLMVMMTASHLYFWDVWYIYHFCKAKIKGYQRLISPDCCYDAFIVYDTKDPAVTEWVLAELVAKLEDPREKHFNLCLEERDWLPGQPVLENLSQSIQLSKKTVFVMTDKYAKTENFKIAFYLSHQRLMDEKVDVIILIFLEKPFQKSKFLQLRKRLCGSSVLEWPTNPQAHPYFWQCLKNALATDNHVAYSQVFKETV
Experiment: TLR7 inhibition reporter assay (HEK-Blue cells, SEAP reporter, gardiquimod stimulation)
Conditions: HEK-Blue cells overexpressing human TLR7, SEAP reporter, gardiquimod 7.5 μM
pIC50: −log10 of the molar value.
Experimental Readout: pIC50

Before answering, review these 4 worked examples.
CC(C)c1c(-c2ccc(C#N)c3ncccc23)[nH]c2ccc(C3CCN(CC(=O)N(C)C)CC3)cc12 [Example 370]
> 7.00
CNCC(=O)N1CCC(c2ccc3[nH]c(-c4cn5ccnc5c(C)c4C)c(C(C)C)c3c2)CC1 [Example 548]
> 7.00
CC(C)c1c(-c2cnc3[nH]ccc3c2)[nH]c2ccc(C3CCN(C(=O)CN(C)C)CC3)cc12 [Example 563]
6.00 to 7.00
CNC(=O)CN1CCC(c2ccc3[nH]c(-c4cc(C(C)(C)O)c5nccn5c4)c(C(C)C)c3c2)CC1 [Example 342]
> 7.00

Field: next compound
## Task Report value only: pIC50, human TLR7 (Homo sapiens, UniProt Q9NYK1), Cc1cc(-c2[nH]c3ccc(C4CCN(C5COC5)CC4)cc3c2C(C)C)cn2nnnc12 [Example 741]
## Result > 7.00
